These measurements were taken from PubChem BioAssay AID1963963.

Test system: 958667-338-R-J2-PDC tumor spheroids viability
Assay: Anticancer human tumor 958667-338-R-J2-PDC patient-derived colon adenocarcinoma cell line growth inhibition [PI3K]
Details: second compound 0.1 µM; first compound 3.16 µM; stronger effect = lower value; spheroids with HUVEC and MSC
attribute-measured: viability, T/C (%)
Give bare numbers, in %.

Some solved cases for reference:
# molecule, viability, T/C [%]
rows = [
    ("C=CC(=O)N1CCN(c2nc(=O)n(-c3c(C)ccnc3C(C)C)c3nc(-c4c(O)cccc4F)c(F)cc23)C(C)C1 (stereo not given) + Cc1nc(NC(=O)N2CCCC2C(N)=O)sc1-c1ccnc(C(C)(C)C(F)(F)F)c1", 129),
    ("CCCS(=O)(=O)Nc1ccc(F)c(C(=O)c2c[nH]c3ncc(-c4ccc(Cl)cc4)cc23)c1F + CC(Nc1ccc2c(c1)OCCn1cc(N3C(=O)OCC3C(F)F)nc1-2)C(N)=O", 81.1),
    ("C#Cc1c(F)ccc2cc(O)cc(-c3ncc4c(N5CC6CCC(C5)N6)nc(OCC56CCCN5CC(F)C6)nc4c3F)c12 (stereo not given) + Cc1nc(NC(=O)N2CCCC2C(N)=O)sc1-c1ccnc(C(C)(C)C(F)(F)F)c1", 76.8),
    ("CC(Cn1ccc(-c2ccc(C#N)c(Cl)c2)n1)NC(=O)c1cc(C(C)O)[nH]n1 (stereo not given) + COc1c(OCCCN2CCOCC2)ccc2c3n(c(=NC(=O)c4cnc(N)nc4)nc12)CCN3", 58.5),
]

Attention now turns to another entry.
Data request: Provide viability, T/C value for the following molecule: C=CC(=O)N1CCN(c2nc(=O)n(-c3c(C)ccnc3C(C)C)c3nc(-c4c(O)cccc4F)c(F)cc23)C(C)C1 (stereo not given) + CC(Nc1ccc2c(c1)OCCn1cc(N3C(=O)OCC3C(F)F)nc1-2)C(N)=O
Data returned: 96.7

* * *

Tested on: 958667-338-R-J2-PDC tumor spheroids viability
Assay: Anticancer human tumor 958667-338-R-J2-PDC cell line growth inhibition [PI3K];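 note: spheroids exposed to compounds for seven days before readout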
Conditions: curve of first compound; second compound 0.0316 µM; spheroids with HUVEC and MSC
Source text: Combinatorial screen of targeted agents with the PI3K inhibitors inavolisib, alpelisib, duvelisib, and copanlisib in multi-cell type tumor spheroids A high-throughput screen of multi-cell type tumor spheroids was designed to identify active combinations of targeted small molecules and PI3K pathway inhibitors. […] Compounds. […] If the clinical Cmax for an agent had not been determined, the highest concentration tested was 10 microM. […]
attribute-measured: pIC50
Answers are plain numbers, as −log10 of the molar value.

Provide each entry's pIC50 from the list below.
1. CCN1CCN(Cc2ccc(Nc3ncc(F)c(-c4cc(F)c5nc(C)n(C(C)C)c5c4)n3)nc2)CC1 + COc1c(OCCCN2CCOCC2)ccc2c3n(c(=NC(=O)c4cnc(N)nc4)nc12)CCN3
2. C#Cc1c(F)ccc2cc(O)cc(-c3ncc4c(N5CC6CCC(C5)N6)nc(OCC56CCCN5CC(F)C6)nc4c3F)c12 (stereo not given) + COc1c(OCCCN2CCOCC2)ccc2c3n(c(=NC(=O)c4cnc(N)nc4)nc12)CCN3
3. CC(C)n1nc(-c2ccc3oc(N)nc3c2)c2c(N)ncnc21 + Cc1nc(NC(=O)N2CCCC2C(N)=O)sc1-c1ccnc(C(C)(C)C(F)(F)F)c1

Data returned:
1: 6.46; 2: 5.19; 3: 7.21

* * *

System: 958667-338-R-J2-PDC tumor spheroids viability
Assay: Anticancer human tumor 958667-338-R-J2-PDC cell line growth inhibition [PI3K];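 note: spheroids exposed to compounds for seven days before readout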
Conditions: curve of first compound; second compound 0.0316 µM; spheroids with HUVEC and MSC
Excerpt: Combinatorial screen of targeted agents with the PI3K inhibitors inavolisib, alpelisib, duvelisib, and copanlisib in multi-cell type tumor spheroids A high-throughput screen of multi-cell type tumor spheroids was designed to identify active combinations of targeted small molecules and PI3K pathway inhibitors. […] Compounds. […] If the clinical Cmax for an agent had not been determined, the highest concentration tested was 10 microM. […]
pIC50: −log10 of the molar value.
attribute-measured: pIC50

Some solved cases for reference:
# compound, attribute-measured, result-value
rows = [
    ("CCN1CCN(Cc2ccc(Nc3ncc(F)c(-c4cc(F)c5nc(C)n(C(C)C)c5c4)n3)nc2)CC1 + CC(Nc1ncnc2nc[nH]c12)c1cc2cccc(Cl)c2c(=O)n1-c1ccccc1", "pIC50", "< 6.00"),
    ("C=CC(=O)N1CCN(c2nc(=O)n(-c3c(C)ccnc3C(C)C)c3nc(-c4c(O)cccc4F)c(F)cc23)C(C)C1 (stereo unspecified) + Cc1nc(NC(=O)N2CCCC2C(N)=O)sc1-c1ccnc(C(C)(C)C(F)(F)F)c1", "pIC50", "< 5.00"),
    ("C#Cc1c(F)ccc2cc(O)cc(-c3ncc4c(N5CC6CCC(C5)N6)nc(OCC56CCCN5CC(F)C6)nc4c3F)c12 (stereo unspecified) + CC(Nc1ncnc2nc[nH]c12)c1cc2cccc(Cl)c2c(=O)n1-c1ccccc1", "pIC50", "< 5.00"),
    ("Cn1nccc1Nc1nccc(-c2ccn(C(CO)c3ccc(Cl)c(F)c3)c(=O)c2)n1 (stereo unspecified) + CC(Nc1ncnc2nc[nH]c12)c1cc2cccc(Cl)c2c(=O)n1-c1ccccc1", "pIC50", "< 5.00"),
    ("CC(=O)c1c(C)c2cnc(Nc3ccc(N4CCNCC4)cn3)nc2n(C2CCCC2)c1=O + CC(Nc1ccc2c(c1)OCCn1cc(N3C(=O)OCC3C(F)F)nc1-2)C(N)=O", "pIC50", "< 7.00"),
]

Data request: Provide pIC50 value for the following compound: Cn1ncc(Cl)c1-c1cc(C(=O)NC(CN)Cc2cccc(F)c2)sc1Cl (stereo unspecified) + CC(Nc1ncnc2nc[nH]c12)c1cc2cccc(Cl)c2c(=O)n1-c1ccccc1
Data returned: < 5.00

* * *

Test system: 958667-338-R-J2-PDC tumor spheroids viability
Test: Anticancer human tumor 958667-338-R-J2-PDC cell line growth inhibition [PI3K];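 note: spheroids exposed to compounds for seven days before readout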
Conditions: curve of first compound; second compound 0.0316 µM; spheroids with HUVEC and MSC
attribute-measured: IC50 (µM)
Numbers only, in µM.

# compound, system-under-test, unit-abbrev, IC50
rows = [
    ("CCCS(=O)(=O)Nc1ccc(F)c(C(=O)c2c[nH]c3ncc(-c4ccc(Cl)cc4)cc23)c1F + CC(Nc1ccc2c(c1)OCCn1cc(N3C(=O)OCC3C(F)F)nc1-2)C(N)=O", "958667-338-R-J2-PDC tumor spheroids viability", "µM", 5),
]

Attention now turns to another entry.
Data request: Provide IC50 value for the following compound: Cn1ncc(Cl)c1-c1cc(C(=O)NC(CN)Cc2cccc(F)c2)sc1Cl (stereo not given) + CC(Nc1ccc2c(c1)OCCn1cc(N3C(=O)OCC3C(F)F)nc1-2)C(N)=O
Data returned: 2.71

* * *

Tested on: 958667-338-R-J2-PDC tumor spheroids viability
Test: Anticancer human tumor 958667-338-R-J2-PDC cell line growth inhibition [PI3K];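 note: spheroids exposed to compounds for seven days before readout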
Settings: curve of first compound; second compound 0.0316 µM; spheroids with HUVEC and MSC
Give pIC50 for every item shown.
Numbers only, as −log10 of the molar value.

# compound, system-under-test, attribute-measured, result-value
records = [
    ("CC1(C)CCC(CN2CCN(c3ccc(C(=O)NS(=O)(=O)c4ccc(NCC5CCOCC5)c([N+](=O)[O-])c4)c(Oc4cnc5[nH]ccc5c4)c3)CC2)=C(c2ccc(Cl)cc2)C1 + Cc1nc(NC(=O)N2CCCC2C(N)=O)sc1-c1ccnc(C(C)(C)C(F)(F)F)c1", "958667-338-R-J2-PDC tumor spheroids viability", "pIC50", 5.15),
]

Data request: Provide pIC50 value for the following compound: Cn1cnc2c(F)c(Nc3ccc(Br)cc3Cl)c(C(=O)NOCCO)cc21 + COc1c(OCCCN2CCOCC2)ccc2c3n(c(=NC(=O)c4cnc(N)nc4)nc12)CCN3
Data returned: 7.42

* * *

Test system: 958667-338-R-J2-PDC tumor spheroids viability
Test: Anticancer human tumor 958667-338-R-J2-PDC cell line growth inhibition [PI3K];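 note: spheroids exposed to compounds for seven days before readout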
Conditions: second compound 0.0316 µM; first compound 0.316 µM; stronger effect = lower value; spheroids with HUVEC and MSC
Give viability, T/C for every item shown.
Give bare numbers, in %.

# compound, system-under-test, viability, T/C [%]
rows = [
    ("C[C@@H](NC(=O)c1ncnc(N)c1Cl)c1ncc(C(=O)Nc2cc(C(F)(F)F)c(Cl)cn2)s1 + Cc1nc(NC(=O)N2CCCC2C(N)=O)sc1-c1ccnc(C(C)(C)C(F)(F)F)c1", "958667-338-R-J2-PDC tumor spheroids viability", 115),
    ("C[C@@H](NC(=O)c1ncnc(N)c1Cl)c1ncc(C(=O)Nc2cc(C(F)(F)F)c(Cl)cn2)s1 + CC(Nc1ccc2c(c1)OCCn1cc(N3C(=O)OCC3C(F)F)nc1-2)C(N)=O", "958667-338-R-J2-PDC tumor spheroids viability", 92),
]

Provide each entry's viability, T/C from the list below.
1. CC(C)NCC(C(=O)N1CCN(c2ncnc3c2C(C)CC3O)CC1)c1ccc(Cl)cc1 (centres undefined) + Cc1nc(NC(=O)N2CCCC2C(N)=O)sc1-c1ccnc(C(C)(C)C(F)(F)F)c1
2. CNC(=O)c1ccc(N2C(=S)N(c3ccc(C#N)c(C(F)(F)F)c3)C(=O)C2(C)C)cc1F + COc1c(OCCCN2CCOCC2)ccc2c3n(c(=NC(=O)c4cnc(N)nc4)nc12)CCN3

Data returned:
[96.3, 74.7]
